Entries and their melting point

If you can, please state the reported melting point value of `FC(F)(F)c1ccc2nnc(-c3c(Cl)cccc3Cl)n2c1` .
104 to 105 °C

Same read-out for CC1CCc2ccc(OCC(O)CNC3CCCCC3)cc2O1 (configuration not stated) ?
97 to 99 °C

Same read-out for `COc1ccc(-c2csc(N)n2)cc1` ?
194 to 205 °C

Same read-out for `CC(=O)Oc1ccc(CCc2ccc(NC(=O)C3=C(O)c4ccccc4SC3)cc2)cc1OC(C)=O` ?
214 to 215 °C

Same read-out for `N#Cc1ccc(-c2ccc(C#N)c(Cn3cncn3)c2)cc1` ?
222 to 223 °C

Same read-out for O=C1c2cc3nnn(CCC4=CCCCC4)c(=O)c3cc2OC2CCCN12 (configuration not stated) ?
124 °C

Each recorded value in this set is attributed to a melting point compilation (Tetko et al.; mined from patent text by program, amines drawn as free bases though some values may be those of a salt).
